- testedOn: recombinant BRD4 BD2 (Homo sapiens, UniProt O60885)
- Construct: for recombinant BRD4 BD1 and BRD4 BD2 proteins
- protocolDetails: Competitive fluorescence-polarization (FP) binding assay, BRD4 BD2; further: probe 1.5 nM
- measurementParameters: competitive FP assay; protein 6 nM, probe […]; read-out: IC50 (nM) BRD4 BD2
Reported IC50 values are given for each entry in this list.
Please respond with the number in nM and leave the unit unwritten.

Example results:
| testSmiles | IC50 [nM] |
| --- | --- |
| CCc1nn(CC)c(CC)c1Nc1nc(C)nc2[nH]c3cc(-c4c(C)noc4C)c(OC)cc3c12 | 29 |
| COc1cc2c(cc1-c1c(C)noc1C)[nH]c1nc(C)nc(Nc3cn(C)nc3C3CC3)c12 | 14.4 |

Reported IC50, molecule CCn1nc(C)c(C2CC2)c1Nc1nc(C)nc2[nH]c3cc(-c4c(C)noc4C)c(OC)cc3c12 : ____
57.7

Repeat with COc1cc2c(cc1-c1c(C)noc1C)[nH]c1nc(C)nc(Nc3cn(C)nc3C(C)(C)O)c12
35.1

Can you check COc1cc2c(cc1-c1c(C)noc1C)[nH]c1nc(C)nc(Nc3cnc4ccccn34)c12 next?
87
